test system: Wistar (Crl:WI(Han)) rats; experiment: Mass spectrometry-based plasma metabolite profiling of rats treated with known inducers of thyroid function impairment; format: in vivo, rat; conditions: male rats, mh7 (study day 7), ratio of group medians vs controls, Table 4
Collected Glycine values appear next to each entry.
outcome_measure: Glycine

molecule="Cn1cc[nH]c1=S [Methimazole]" quantitative_readout=1.42
molecule="CCC1(c2ccccc2)C(=O)NC(=O)NC1=O [Phenobarbital sodium]" quantitative_readout=0.95
molecule="CCC(CC)Nc1c([N+](=O)[O-])cc(C)c(C)c1[N+](=O)[O-] [Pendimethalin]" quantitative_readout=1.11
molecule="Cc1cccc(C)c1N(Cn1cccn1)C(=O)CCl [Metazachlor]" quantitative_readout=1.12

The values you see were collected from patent US20120132797A1.
